Please provide measured TGI for the entries that follow.
# System: NCI-H226 lung
# METHOD_DESCRIPTION: NCI tumour cell line growth inhibition, 48 h
Write down the numeric answer in µM and omit the unit.

[Q] // lookup TGI for `COc1ccc(/C=C/c2c(C(=O)/C=C/c3ccc(C(F)(F)F)cc3)c(C)nc3ccccc23)cc1`
[A] 4.01

[Q] Can you look up the measured TGI of `S=C1Cc2c(-c3ccc(Br)cc3)cc(-c3ccccc3)nc2-c2ccccc2N1` for me?
[A] 8.54

###

I'd be grateful if you could share measured TGI for these entries.
# Tested on: UACC-62 melanoma
# METHOD_DESCRIPTION: NCI tumour cell line growth inhibition, 48 h
The figure you give is taken to be in µM; do not add the unit.

[Q] Any idea what TGI was measured for COc1ccc(C2=Nc3ccccc3SC(C)C2)cc1OC (stereo not given) ?
[A] 32.4

[Q] Suppose we examine the compound `CS(=O)(=O)Nc1cccc(-c2ccc3ncnc(Nc4ccc(F)c(Cl)c4)c3c2)c1` ; what TGI value has been reported?
[A] 3.83

[Q] Entry `O=C1/C(=C/c2ccc(F)cc2)CN(C(=O)CCN2CCC(=NO)CC2)C/C1=C\c1ccc(F)cc1` : reported TGI = ?
[A] 2.41

[Q] Which TGI value belongs to `O=C(CN(/C=C/C(=O)C(F)(F)F)c1ccc(Cl)cc1)c1ccc(Cl)c(Cl)c1` ?
[A] 16.1
